# Target Or Test System: 5-hydroxytryptamine receptor 1A (Homo sapiens)
# Test Name: Agonist activity assessed by stimulation of [35S]GTPgammaS binding in CHO cells expressing 5HT1A receptor relative to 5HT
# Format: functional, cell-based
Emax less than 90% is satisfied; Emax greater than or equal to 90% is not satisfied.

Use these answered entries as a reference point.
>>> answer_label("c1ccc2c(c1)NCC(CNCCc1c[nH]c3ccccc13)O2 (stereo not drawn)")
"not satisfied"
>>> answer_label("C1=C(c2c[nH]c3ccccc23)CCN(CC2CNc3ccccc3O2)C1 (stereo not drawn)")
"satisfied"
>>> answer_label("CN1CC(CNCCc2c[nH]c3ccccc23)Oc2ccccc21 (stereo not drawn)")
"not satisfied"
>>> answer_label("COc1cccc2c1OC(CN1CC=C(c3c[nH]c4ccc(F)cc34)CC1)CN2C (stereo not drawn)")
"not satisfied"

Determine if COc1cccc2c1OC(CN1CC=C(c3c[nH]c4ccc(F)cc34)CC1)CN2 (stereo not drawn) shows Emax strictly lower than 90%.
satisfied

I wonder whether CCCN1CC(CNCCc2c[nH]c3ccccc23)Oc2ccccc21 (stereo not drawn) has Emax below 90%. Can you tell?
not satisfied

# check: Emax < 90% for CN1CC(CNCCc2c[nH]c3ccc(F)cc23)Oc2ccccc21 (stereo not drawn)
satisfied

###

Here the recorded pEC50 is given for each entry.
# Target Or Test System: 5-hydroxytryptamine receptor 1A (Homo sapiens)
# Test Name: Intrinsic activity assessed by stimulation of [35S]GTP-gamma-S binding in CHO cells expressing 5HT1A receptor
Please treat pEC50 as minus the base-10 logarithm of the molar concentration.

>>> recorded_number("CN1CC(CNCCc2c[nH]c3ccccc23)Oc2ccccc21 (stereo not drawn)")
7.47
>>> recorded_number("COc1cccc2c1OC(CNCCc1c[nH]c3ccc(F)cc13)CN2 (stereo not drawn)")
7.28
>>> recorded_number("c1ccc2c(c1)NCC(CNCCc1c[nH]c3ccccc13)O2 (stereo not drawn)")
7.03

We now examine a further compound.
Send back 5-hydroxytryptamine receptor 1A (Homo sapiens) pEC50 of CCCN1CC(CN2CC=C(c3c[nH]c4ccc(F)cc34)CC2)Oc2c(OC)cccc21 (stereo not drawn) only.
6.87

###

# Target Or Test System: Sodium-dependent serotonin transporter (Rattus norvegicus) (UniProt P31652)
# Sequence (P31652 whole entry): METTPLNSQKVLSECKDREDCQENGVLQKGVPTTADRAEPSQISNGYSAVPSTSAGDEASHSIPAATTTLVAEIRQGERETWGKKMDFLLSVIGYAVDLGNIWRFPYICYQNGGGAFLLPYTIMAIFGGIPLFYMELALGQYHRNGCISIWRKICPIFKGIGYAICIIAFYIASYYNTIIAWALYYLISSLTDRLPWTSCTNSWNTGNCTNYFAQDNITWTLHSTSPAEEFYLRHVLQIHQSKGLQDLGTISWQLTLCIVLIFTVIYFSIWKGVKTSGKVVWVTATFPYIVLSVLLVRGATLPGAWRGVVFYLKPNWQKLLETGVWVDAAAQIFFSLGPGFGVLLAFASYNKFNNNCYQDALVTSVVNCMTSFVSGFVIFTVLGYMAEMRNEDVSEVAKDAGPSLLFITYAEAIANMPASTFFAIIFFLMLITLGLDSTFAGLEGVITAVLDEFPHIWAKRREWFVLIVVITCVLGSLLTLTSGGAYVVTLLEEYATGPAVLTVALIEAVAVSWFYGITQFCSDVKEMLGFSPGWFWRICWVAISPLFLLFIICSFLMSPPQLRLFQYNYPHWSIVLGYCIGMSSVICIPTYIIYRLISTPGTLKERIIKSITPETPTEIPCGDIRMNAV
# Test Name: Inhibition of [3H]paroxetine binding to rat cortical 5-HT reuptake at 100 nM
Property Measured: inhibition

Look over these answered cases.
>>> result("c1ccc(N2CC(CNCCc3c[nH]c4ccccc34)Oc3ccccc32)cc1 (centres undefined)")
"23%"
>>> result("c1ccc(N2CC(CNCCCc3c[nH]c4ccccc34)Oc3ccccc32)cc1 (centres undefined)")
"7%"
>>> result("Fc1ccc2[nH]cc(CCNCC3CN(c4ccccc4)c4ccccc4O3)c2c1 (centres undefined)")
"43%"

Shift focus to the following entry.
Fill: inhibition (Sodium-dependent serotonin transporter (Rattus norvegicus) (UniProt P31652)) for this compound Fc1ccc2[nH]cc(CCNCC3CN(Cc4ccccc4)c4ccccc4O3)c2c1 (centres undefined)
23%

###

Listed next: entries and their corresponding Emax.
# Target Or Test System: 5-hydroxytryptamine receptor 1A (Homo sapiens)
# Sequence (whole entry): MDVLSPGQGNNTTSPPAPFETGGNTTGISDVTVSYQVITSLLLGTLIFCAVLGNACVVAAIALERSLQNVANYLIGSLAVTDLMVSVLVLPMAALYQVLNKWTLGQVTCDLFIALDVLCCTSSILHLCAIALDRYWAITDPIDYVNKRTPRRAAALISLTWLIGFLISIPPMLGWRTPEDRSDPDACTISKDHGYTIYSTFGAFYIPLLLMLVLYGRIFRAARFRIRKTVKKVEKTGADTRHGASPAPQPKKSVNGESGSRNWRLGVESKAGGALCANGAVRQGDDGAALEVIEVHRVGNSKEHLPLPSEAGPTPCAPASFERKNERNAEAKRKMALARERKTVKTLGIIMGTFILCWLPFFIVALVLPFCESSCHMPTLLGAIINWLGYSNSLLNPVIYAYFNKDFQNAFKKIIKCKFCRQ
# Test Name: Agonist activity assessed by stimulation of [35S]GTPgammaS binding in CHO cells expressing 5HT1A receptor relative to 5HT
# Type: functional, cell-based
Only the number, expressed in %, is required.

Solved entries:
>>> recorded_number("CCCN1CC(CN2CC=C(c3c[nH]c4ccc(F)cc34)CC2)Oc2c(OC)cccc21 (stereo not given)")
92
>>> recorded_number("CCN1CC(CN2CC=C(c3c[nH]c4ccc(F)cc34)CC2)Oc2c(OC)cccc21 (stereo not given)")
54
>>> recorded_number("COc1cccc2c1OC(CNCCc1c[nH]c3ccc(F)cc13)CN2 (stereo not given)")
66
>>> recorded_number("CC(C)N1CC(CNCCc2c[nH]c3ccc(F)cc23)Oc2ccccc21 (stereo not given)")
90
>>> recorded_number("COc1ccc2c(c1)OC(CNCCc1c[nH]c3ccc(F)cc13)CN2 (stereo not given)")
56
>>> recorded_number("CN1CC(CNCCc2c[nH]c3ccc(F)cc23)Oc2cc(Cl)ccc21 (stereo not given)")
64
>>> recorded_number("c1ccc(CN2CC(CNCCCc3c[nH]c4ccccc34)Oc3ccccc32)cc1 (stereo not given)")
64
>>> recorded_number("CCN1CC(CNCCc2c[nH]c3ccc(F)cc23)Oc2ccccc21 (stereo not given)")
100

Answer with the recorded Emax of Fc1ccc2[nH]cc(CCNCC3CNc4ccccc4O3)c2c1 (stereo not given) only.
100

Retrieve Emax measured for CC(C)CN1CC(CNCCc2c[nH]c3ccc(F)cc23)Oc2ccccc21 (stereo not given) and print it.
88

###

# Target Or Test System: Adrenergic receptor alpha-1 (Rattus norvegicus, UniProt P15823+P23944+P43140)
# Sequence (P15823 whole entry): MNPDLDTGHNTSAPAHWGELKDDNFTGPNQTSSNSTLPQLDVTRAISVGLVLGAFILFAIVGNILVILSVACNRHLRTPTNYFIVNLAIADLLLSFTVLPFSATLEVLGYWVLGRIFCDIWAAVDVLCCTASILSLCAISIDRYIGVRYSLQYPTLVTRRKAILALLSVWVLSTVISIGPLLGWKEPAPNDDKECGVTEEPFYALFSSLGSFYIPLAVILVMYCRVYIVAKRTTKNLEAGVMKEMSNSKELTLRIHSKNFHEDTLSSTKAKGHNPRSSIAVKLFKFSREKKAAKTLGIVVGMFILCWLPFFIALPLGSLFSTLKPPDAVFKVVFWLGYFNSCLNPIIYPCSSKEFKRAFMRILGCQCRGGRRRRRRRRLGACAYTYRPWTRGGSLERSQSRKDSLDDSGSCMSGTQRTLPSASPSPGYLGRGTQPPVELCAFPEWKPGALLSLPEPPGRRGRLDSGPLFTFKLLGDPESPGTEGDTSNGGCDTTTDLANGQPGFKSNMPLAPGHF
# Sequence (P23944 whole entry): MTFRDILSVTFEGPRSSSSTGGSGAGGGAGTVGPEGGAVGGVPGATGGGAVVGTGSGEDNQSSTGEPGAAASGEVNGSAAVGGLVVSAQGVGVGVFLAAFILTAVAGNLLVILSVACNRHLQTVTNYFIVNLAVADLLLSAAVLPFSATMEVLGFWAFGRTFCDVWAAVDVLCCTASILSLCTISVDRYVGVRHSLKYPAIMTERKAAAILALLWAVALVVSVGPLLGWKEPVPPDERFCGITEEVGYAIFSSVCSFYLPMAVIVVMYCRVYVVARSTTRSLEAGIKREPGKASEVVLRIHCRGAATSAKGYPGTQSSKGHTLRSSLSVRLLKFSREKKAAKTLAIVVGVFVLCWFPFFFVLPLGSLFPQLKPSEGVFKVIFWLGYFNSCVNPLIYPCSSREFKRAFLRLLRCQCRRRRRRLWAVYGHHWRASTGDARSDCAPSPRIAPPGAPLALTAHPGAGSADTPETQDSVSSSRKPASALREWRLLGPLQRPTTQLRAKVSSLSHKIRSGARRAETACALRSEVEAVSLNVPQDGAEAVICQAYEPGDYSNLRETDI
# Sequence (P43140 whole entry): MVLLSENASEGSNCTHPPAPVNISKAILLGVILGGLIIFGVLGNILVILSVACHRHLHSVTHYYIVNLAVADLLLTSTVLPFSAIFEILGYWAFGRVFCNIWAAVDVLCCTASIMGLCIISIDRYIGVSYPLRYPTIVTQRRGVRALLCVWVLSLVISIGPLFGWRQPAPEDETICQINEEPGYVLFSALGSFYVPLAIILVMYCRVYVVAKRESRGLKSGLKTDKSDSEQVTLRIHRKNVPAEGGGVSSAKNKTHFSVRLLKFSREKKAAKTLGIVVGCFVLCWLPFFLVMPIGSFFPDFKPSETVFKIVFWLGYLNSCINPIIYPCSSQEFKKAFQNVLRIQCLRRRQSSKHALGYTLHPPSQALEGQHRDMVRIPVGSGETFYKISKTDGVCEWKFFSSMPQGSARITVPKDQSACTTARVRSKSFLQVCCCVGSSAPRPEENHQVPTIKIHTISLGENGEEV
# Test Name: Displacement of [3H]prazosin from adrenergic alpha-1 receptor in rat cortical membrane
# Format: cell membranes
Mark 1.0 only when Ki stays strictly below 100 nM. Values equal to the cut-off are 0.0.

>>> answer_label("Fc1ccc2[nH]cc(CCNCC3CNc4ccccc4O3)c2c1 (stereo not given)")
1.0
>>> answer_label("CCCN1CC(CNCCc2c[nH]c3ccccc23)Oc2ccccc21 (stereo not given)")
0.0
>>> answer_label("COc1ccc2c(c1)OC(CNCCc1c[nH]c3ccc(F)cc13)CN2 (stereo not given)")
1.0

Is the reported Ki for CN1CC(CNCCc2c[nH]c3ccc(F)cc23)Oc2cc(Cl)ccc21 (stereo not given) strictly below 100 nM?
0.0

Ki under 100 nM? Item: CCCN1CC(CN2CC=C(c3c[nH]c4ccc(F)cc34)CC2)Oc2c(OC)cccc21 (stereo not given)
0.0

Does the reported Ki of the following compound sit strictly below 100 nM? COc1cccc2c1OC(CNCCc1c[nH]c3ccc(F)cc13)CN2 (stereo not given)
1.0

Is Ki strictly under 100 nM for the entry C1=C(c2c[nH]c3ccccc23)CCN(CC2CNc3ccccc3O2)C1 (stereo not given) ?
1.0

Is it true that Ki reported for COc1cccc2c1OC(CN1CC=C(c3c[nH]c4ccc(F)cc34)CC1)CN2C (stereo not given) is less than 100 nM?
1.0

I wonder whether CCN1CC(CN2CC=C(c3c[nH]c4ccc(F)cc34)CC2)Oc2c(OC)cccc21 (stereo not given) has Ki below 100 nM. Can you tell?
0.0

For COc1cccc2c1OC(CN1CC=C(c3c[nH]c4ccc(F)cc34)CC1)CN2 (stereo not given) , is the recorded Ki below the cut-off of 100 nM?
1.0
